# system-under-test: SecA-506C (Escherichia coli, UniProt P10408, C885S/C887S/C896S/C98S/M506C)
# Sequence (P10408 whole entry C98S/M506C/C885S/C887S/C896S): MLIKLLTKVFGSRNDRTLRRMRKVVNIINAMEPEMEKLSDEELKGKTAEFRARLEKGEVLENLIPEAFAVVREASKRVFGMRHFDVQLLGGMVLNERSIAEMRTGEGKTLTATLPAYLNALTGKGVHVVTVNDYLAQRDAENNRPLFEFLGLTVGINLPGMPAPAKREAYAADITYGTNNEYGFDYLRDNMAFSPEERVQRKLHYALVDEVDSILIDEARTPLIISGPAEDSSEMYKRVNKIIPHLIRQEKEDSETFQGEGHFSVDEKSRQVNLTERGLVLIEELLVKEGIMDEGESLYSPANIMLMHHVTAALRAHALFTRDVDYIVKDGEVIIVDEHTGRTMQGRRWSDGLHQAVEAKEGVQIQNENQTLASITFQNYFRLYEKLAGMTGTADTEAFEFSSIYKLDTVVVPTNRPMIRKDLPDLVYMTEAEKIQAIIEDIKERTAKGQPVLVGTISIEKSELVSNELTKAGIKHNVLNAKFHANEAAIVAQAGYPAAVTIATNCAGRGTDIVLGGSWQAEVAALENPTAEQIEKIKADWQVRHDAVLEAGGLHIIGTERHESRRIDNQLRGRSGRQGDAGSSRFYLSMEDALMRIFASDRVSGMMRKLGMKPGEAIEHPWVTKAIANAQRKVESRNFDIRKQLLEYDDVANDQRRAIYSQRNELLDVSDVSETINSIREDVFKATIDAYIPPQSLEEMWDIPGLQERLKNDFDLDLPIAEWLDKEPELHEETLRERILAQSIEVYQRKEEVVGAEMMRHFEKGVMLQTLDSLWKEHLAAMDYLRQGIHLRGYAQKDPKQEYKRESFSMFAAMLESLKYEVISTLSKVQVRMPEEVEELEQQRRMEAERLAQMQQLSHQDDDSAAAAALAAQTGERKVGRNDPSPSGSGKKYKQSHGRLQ
# Assay type: binding
No end group written: not given here.
reported-metric: pKd
Here pKd is given on a logarithmic scale as minus log10 of the concentration in mol/L.

Return reported pKd; argument: MKQSTIALALLPLLFTPVTKAC-NH2 [SP22]
5.82

How about MCKQSTIALALLPLLYTPVTKARTPEMPVLENRAAQGDITA-NH2 [SP41] ?
5.20

###

# system-under-test: SecA-458C (Escherichia coli, UniProt P10408, C885S/C887S/C896S/C98S/S458C)
# Format: binding
No end group written: not given here.
reported-metric: pKd
Kindly note that pKd refers to -log10 of the concentration in mol/L and answer with the value alone.

Param item = MCKQSTIALALLPLLYTPVTKARTPEMPVLENRAAQGDITA-NH2 [SP41] ; retrieve measured pKd.
5.32

Param item: MKQSTIALALLPLLFTPVTKAC-NH2 [SP22]
5.52
